Source listed as the supplement of paper PMC3353916.

# reported percent infected; entries follow
System: Sindbis virus TE/5'2J-GFP
protocol-summary: percent infected (GFP+ in RFP+ ISG-expressing cells); higher = more infection (less antiviral activity)
assay-setup: experiment: confirmatory screen 3; BHK/NZAP-Zeo (ZAP)
Answer in %, number only, no unit symbol.

Record excerpt, results attached:
1. MFAKGKGSAVPSDGQAREKLALYVYEYLLHVGAQKSAQTFLSEIRWEKNITLGEPPGFLHSWWCVFWDLYCAAPERRDTCEHSSEAKAFHDYSAAAAPSPVLGNIPPNDGMPGGPIPPGFFQGPPGSQPSPHAQPPPHNPSSMMGPHSQPFMSPRYAGGPRPPIRMGNQPPGGVPGTQPLLPNSMDPTRQQGHPNMGGSMQRMNPPRGMGPMGPGPQNYGSGMRPPPNSLGPAMPGINMGPGAGRPWPNPNSANSIPYSSSSPGTYVGPPGGGGPPGTPIMPSPADSTNSSDNIYTMINPVPPGGSRSNFPMGPGSDGPMGGMGGMEPHHMNGSLGSGDIDGLPKNSPNNISGISNPPGTPRDDGELGGNFLHSFQNDNYSPSMTMSV [SSBP3] : 54.1
2. MSSWSRQRPKSPGGIQPHVSRTLFLLLLLAASAWGVTLSPKDCQVFRSDHGSSISCQPPAEIPGYLPADTVHLAVEFFNLTHLPANLLQGASKLQELHLSSNGLESLSPEFLRPVPQLRVLDLTRNALTGLPPGLFQASATLDTLVLKENQLEVLEVSWLHGLKALGHLDLSGNRLRKLPPGLLANFTLLRTLDLGENQLETLPPDLLRGPLQLERLHLEGNKLQVLGKDLLLPQPDLRYLFLNGNKLARVAAGAFQGLRQLDMLDLSNNSLASVPEGLWASLGQPNWDMRDGFDISGNPWICDQNLSDLYRWLQAQKDKMFSQNDTRCAGPEAVKGQTLLAVAKSQ [LRG1] : 94.5
3. MASGRARCTRKLRNWVVEQVESGQFPGVCWDDTAKTMFRIPWKHAGKQDFREDQDAAFFKAWAIFKGKYKEGDTGGPAVWKTRLRCALNKSSEFKEVPERGRMDVAEPYKVYQLLPPGIVSGQPGTQKVPSKRQHSSVSSERKEEEDAMQNCTLSPSVLQDSLNNEEEGASGGAVHSDIGSSSSSSSPEPQEVTDTTEAPFQGDQRSLEFLLPPEPDYSLLLTFIYNGRVVGEAQVQSLDCRLVAEPSGSESSMEQVLFPKPGPLEPTQRLLSQLERGILVASNPRGLFVQRLCPIPISWNAPQAPPGPGPHLLPSNECVELFRTAYFCRDLVRYFQGLGPPPKFQVTLNFWEESHGSSHTPQNLITVKMEQAFARYLLEQTPEQQAAILSLV [IRF9] : 93
4. MRTSYLLLFTLCLLLSEMASGGNFLTGLGHRSDHYNCVSSGGQCLYSACPIFTKIQGTCYRGKAKCCK [DEFB1] : 92.2
5. MNTIVFNKLSGAVLFEDGGASERERGGRPYSGVLDSPHARPEVGIPDGPPLKDNLGLRHRRTGARQNGGKVRHKRQALQDMARPLKQWLYKHRDNPYPTKTEKILLALGSQMTLVQVSNWFANARRRLKNTVRQPDLSWALRIKLYNKYVQGNAERLSVSSDDSCSEDGENPPRTHMNEGGYNTPVHHPVIKSENSVIKAGVRPESRASEDYVAPPKYKSSLLNRYLNDSLRHVMATNTTMMGKTRQRNHSGSFSSNEFEEELVSPSSSETEGNFVYRTDTLENGSNKGESAANRKGPSKDDTYWKEINAAMALTNLAQGKDKLQGTTSCIIQKSSHIAEVKTVKVPLVQQF [MKX] : 86.1
6. MAGIELERCQQQANEVTEIMRNNFGKVLERGVKLAELQQRSDQLLDMSSTFNKTTQNLAQKKCWENIRYRICVGLVVVGVLLIILIVLLVVFLPQSSDSSSAPRTQDAGIASGPGN [VAMP5] : 93.5

Q. Lab note: need percent infected with Sindbis virus TE/5'2J-GFP for entry MERISAFFSSIWDTILTKHQEGIYNTICLGVLLGLPLLVIITLLFICCHCCWSPPGKRGQQPEKNKKKKKKKKKKDEEDLWISAQPKLLQMEKRPSLPV [KIAA0040] , please look it up.
A. 87.8

Q. Checklist item: percent infected tested on Sindbis virus TE/5'2J-GFP, entry MPITRMRMRPWLEMQINSNQIPGLIWINKEEMIFQIPWKHAAKHGWDINKDACLFRSWAIHTGRYKAGEKEPDPKTWKANFRCAMNSLPDIEEVKDQSRNKGSSAVRVYRMLPPLTKNQRKERKSKSSRDAKSKAKRKSCGDSSPDTFSDGLSSSTLPDDHSSYTVPGYMQDLEVEQALTPALSPCAVSSTLPDWHIPVEVVPDSTSDLYNFQVSPMPSTSEATTDEDEEGKLPEDIMKLLEQSEWQPTNVDGKGYLLNEPGVQPTSVYGDFSCKEEPEIDSPGGDIGLSLQRVFTDLKNMDATWLDSLLTPVRLPSIQAIPCAP [IRF1] , value?
A. 0.16

Q. What value of percent infected on Sindbis virus TE/5'2J-GFP does MGILYSEPICQAAYQNDFGQVWRWVKEDSSYANVQDGFNGDTPLICACRRGHVRIVSFLLRRNANVNLKNQKERTCLHYAVKKKFTFIDYLLIILLMPVLLIGYFLMVSKTKQNEALVRMLLDAGVEVNATDCYGCTALHYACEMKNQSLIPLLLEARADPTIKNKHGESSLDIARRLKFSQIELMLRKAL [ANKRD22] have?
A. 93.2

Q. Please provide the recorded percent infected for MLTELEKALNSIIDVYHKYSLIKGNFHAVYRDDLKKLLETECPQYIRKKGADVWFKELDINTDGAVNFQEFLILVIKMGVAAHKKSHEESHKE [S100A8] , tested on Sindbis virus TE/5'2J-GFP.
A. 89.4

Q. For Sindbis virus TE/5'2J-GFP, provide percent infected of MLRAGAPTGDLPRAGEVHTGTTIMAVEFDGGVVMGSDSRVSAGEAVVNRVFDKLSPLHERIYCALSGSAADAQAVADMAAYQLELHGIELEEPPLVLAAANVVRNISYKYREDLSAHLMVAGWDQREGGQVYGTLGGMLTRQPFAIGGSGSTFIYGYVDAAYKPGMSPEECRRFTTDAIALAMSRDGSSGGVIYLVTITAAGVDHRVILGNELPKFYDE [PSMB9] please.
A. 83.1

Q. Form field: percent infected recorded for MRSRLLLSVAHLPTIRETTEEMLLGGPGQEPPPSPSLDDYVRSISRLAQPTSVLDKATAQGQPRPPHRPAQACRKGRPAVSLRDITARFSGQQPTLPMADTVDPLDWLFGESQEKQPSQRDLPRRTGPSAGLWGPHRQMDSSKPMGAPRGRLCEARMPGHSLARPPQDGQQSSDLRSWTFGQSAQAMASRHRPRPSSVLRTLYSHLPVIHEL [C10orf10] with Sindbis virus TE/5'2J-GFP (enter value)
A. 92.8

Q. Quick check: percent infected on Sindbis virus TE/5'2J-GFP, item MSSAIERKSLDPSEEPVDEVLQIPPSLLTCGGCQQNIGDRYFLKAIDQYWHEDCLSCDLCGCRLGEVGRRLYYKLGRKLCRRDYLRLFGQDGLCASCDKRIRAYEMTMRVKDKVYHLECFKCAACQKHFCVGDRYLLINSDIVCEQDIYEWTKINGMI [LMO2] ?
A. 92.6

----------
Reported percent infected values for the following sequences.
Test system: Sindbis virus TE/5'2J-GFP;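 also: Interferon-defective BHK-21 derivatives, ZAP line overexpressing the rat ZAP N-terminal zinc finger domain fused to Zeocin resistance, GFP scored within live singlet TagRFP+ cells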
protocol-summary: percent infected (GFP+ in RFP+ ISG-expressing cells); higher = more infection (less antiviral activity)
assay-setup: experiment: confirmatory screen 2; BHK/NZAP-Zeo (ZAP)

The cases that follow already have their percent infected on record.
1) MGILYSEPICQAAYQNDFGQVWRWVKEDSSYANVQDGFNGDTPLICACRRGHVRIVSFLLRRNANVNLKNQKERTCLHYAVKKKFTFIDYLLIILLMPVLLIGYFLMVSKTKQNEALVRMLLDAGVEVNATDCYGCTALHYACEMKNQSLIPLLLEARADPTIKNKHGESSLDIARRLKFSQIELMLRKAL [ANKRD22] : 95.6%
2) MKVSAAALAVILIATALCAPASASPYSSDTTPCCFAYIARPLPRAHIKEYFYTSGKCSNPAVVFVTRKNRQVCANPEKKWVREYINSLEMS [CCL5] : 93.5%
3) MGAQLCFEANAKAPREALRFHAEAKGAQVRLDTRGCIAHRRTTFHDGIVFSQRPVRLGERVALRVLREESGWCGGLRVGFTRLDPACVSVPSLPPFLCPDLEEQSPTWAAVLPEGCALTGDLVRFWVDRRGCLFAKVNAGCRLLLREGVPVGAPLWAVMDVYGTTKAIELLDPTASRLPTPMPWDLSNKAVPEPKATPGEECAICFYHAANTRLVPCGHTYFCRYCAWRVFSDTAKCPVCRWQIEAVAPAQGPPALRVEEGS [LINCR] : 94.4%

Q. Looking for the measured percent infected of MSIMDHSPTTGVVTVIVILIAIAALGALILGCWCYLRLQRISQSEDEESIVGDGETKEPFLLVQYSAKGPCVERKAKLMTPNGPEVHG [SNN] , can you help?
A. 95.6%

Q. Requested field: percent infected. Item: MTLRCLEPSGNGGEGTRSQWGTAGSAEEPSPQAARLAKALRELGQTGWYWGSMTVNEAKEKLKEAPEGTFLIRDSSHSDYLLTISVKTSAGPTNLRIEYQDGKFRLDSIICVKSKLKQFDSVVHLIDYYVQMCKDKRTGPEAPRNGTVHLYLTKPLYTSAPSLQHLCRLTINKCTGAIWGLPLPTRLKDYLEEYKFQV [SOCS2]
A. 94.4%

Q. # lookup: percent infected of MQEGELAISPISPVAAMPPLGTHVQARCEAQINLLGEGGICKLPGRLRIQPALWSREDVLHWLRWAEQEYSLPCTAEHGFEMNGRALCILTKDDFRHRAPSSGDVLYELLQYIKTQRRALVCGPFFGGIFRLKTPTQHSPVPPEEVTGPSQMDTRRGHLLQPPDPGLTSNFGHLDDPGLARWTPGKEESLNLCHCAELGCRTQGVCSFPAMPQAPIDGRIADCRLLWDYVYQLLLDTRYEPYIKWEDKDAKIFRVVDPNGLARLWGNHKNRVNMTYEKMSRALRHYYKLNIIKKEPGQKLLFRFLKTPGKMVQDKHSHLEPLESQEQDRIEFKDKRPEISP [ETV7]
A. 95.3%

Q. Find the recorded percent infected belonging to MEKLLCFLVLTSLSHAFGQTDMSRKAFVFPKESDTSYVSLKAPLTKPLKAFTVCLHFYTELSSTRGYSIFSYATKRQDNEILIFWSKDIGYSFTVGGSEILFEVPEVTVAPVHICTSWESASGIVEFWVDGKPRVRKSLKKGYTVGAEASIILGQEQDSFGGNFEGSQSLVGDIGNVNMWDFVLSPDEINTIYLGGPFSPNVLNWRALKYEVQGEVFTKPQLWP [CRP] and report it.
A. 94.3%
